# Test system: BALB/C mice
# Procedure Details: Local tolerance determination by footpad injection
# Assay type: in vivo
# Settings: cirRNA (SEQ ID NO: 1) LNP, 0.175 mg*kg-1 subcutaneous into the footpad, 24 hours post minus prior
Endpoint Name: Footpad Thickness (24 h−0 h, mm)
Give just the numeric value; mm need not be written.

Task: Consider the molecule CCCCCCCCCC(=O)OCCCCCCCN(CCCCCCCCOC(=O)C(CCCCCC)CCCCCCCC)CCOC(=O)NCCN1CCCCC1 (stereo not shown) and give its recorded Footpad Thickness (24 h−0 h, mm).
Output: 0.44

Task: Consider the molecule CCCCC/C=C\C/C=C\CCCCCCCCN(CCCCCCCC/C=C\CCCCCCCC)CCOC(=O)NCc1ncc[nH]1 and give its recorded Footpad Thickness (24 h−0 h, mm).
Output: 1.00

Task: Consider the molecule CCCCC/C=C\C/C=C\CCCCCCCCN(CCCCCCCC(=O)OC(CCCCCCCC)CCCCCCCC)CCOC(=O)NCc1ncc[nH]1 and give its recorded Footpad Thickness (24 h−0 h, mm).
Output: 1.24

Task: Consider the molecule CCCCC/C=C\CCOC(=O)CCCCCN(CCCCCC(=O)OCC(CCCCCCCC)CCCCCCCCCC)CCOC(=O)NCCN1CCCCC1 (stereo not shown) and give its recorded Footpad Thickness (24 h−0 h, mm).
Output: 0.68

* * *

Hi there, I'd appreciate the recorded AST in Sera (IU/L) 2 hours After 0.5 MPK Injection for every entry that follows.
# Tested on: Aspartate Aminotransferase (AST)
# Procedure Details: Liver enzyme elevation in serum, AST
# Type: in vivo
# Settings: cirRNA (SEQ ID NO: 1) LNPs; BALB/C mice; intravenous 0.5 MPK; 2 hours
Give just the numeric value; IU/L need not be written.

Task: Consider the molecule CCCCCCCCCC(=O)OCCCCCCCN(CCCCCCCCOC(=O)C(CCCCCC)CCCCCCCC)CCOC(=O)NCCN(C)C (stereo not drawn) and give its recorded AST in Sera (IU/L) 2 hours After 0.5 MPK Injection.
Output: 215.67

Task: Consider the molecule CCCCC/C=C\C/C=C\CCCCCCCCN(CCCCCCCC(=O)OC(CCCCCCCC)CCCCCCCC)CCOC(=O)NCCCN(CC)CC and give its recorded AST in Sera (IU/L) 2 hours After 0.5 MPK Injection.
Output: 161.27

Task: Consider the molecule CCCCCCCCCCC(CCCCCCCC)COC(=O)CCCCCN(CCCCCC(=O)OCC(CCCCCCCC)CCCCCCCCCC)CCCOC(=O)NCCN1CCCC1 (stereo not drawn) and give its recorded AST in Sera (IU/L) 2 hours After 0.5 MPK Injection.
Output: 364.00

Task: Consider the molecule CCCCCCCCCCC(CCCCCCCC)COC(=O)CCCCCN(CCCCCC(=O)OCC(CCCCCCCC)CCCCCCCCCC)CCOC(=O)NCCN1CCCC1 (stereo not drawn) and give its recorded AST in Sera (IU/L) 2 hours After 0.5 MPK Injection.
Output: 218.63

Task: Consider the molecule CCCCCCCCC(CCCCCC)C(=O)OCCCCCCCCN(CCCCCCCCOC(=O)C(CCCCCC)CCCCCCCC)CCCOC(=O)NCCCN(CC)CC (stereo not drawn) and give its recorded AST in Sera (IU/L) 2 hours After 0.5 MPK Injection.
Output: 434.67

Task: Consider the molecule CCCCCCCCCC(=O)OCCCCCCCN(CCCCCCCCOC(=O)C(CCCCCC)CCCCCCCC)CCOC(=O)NCCN1CCCC1 (stereo not drawn) and give its recorded AST in Sera (IU/L) 2 hours After 0.5 MPK Injection.
Output: 264.00
